The reported measurements were obtained from patent US8536202B2.

- RUN_DESCRIPTION: log P determination by HPLC on reversed-phase columns (EEC Directive 79/831 Annex V.A8)
- Type: physicochemical
- EXPERIMENTAL_CONDITIONS: pH 2.7
RECORDED_METRIC: chromatographic logP
One number for each entry.

// each listed compound needs a value for chromatographic logP
1. Cc1cc(I)cc(C(N)=O)c1NC(=O)c1cc(Cn2ncc(C(F)(F)C(F)(F)F)n2)nn1-c1ncccc1Cl
2. CNC(=O)c1cc(I)cc(C)c1NC(=O)c1cc(Cn2ncc(C(F)(F)F)n2)nn1-c1ncccc1Cl

[3.33, 3.26]

// each listed compound needs a value for chromatographic logP
1. Cc1cc(C#N)cc(C(=O)NC(C)(C)C)c1NC(=O)c1cc(Cn2cc(C(F)(F)F)nn2)nn1-c1ncccc1Cl
2. N#CCNC(=O)c1cc(Cl)cc(Cl)c1NC(=O)c1cc(Cn2ncc(C(F)(F)F)n2)nn1-c1ncccc1Cl
3. Cc1cc(I)cc(C(=O)NC2CC2)c1NC(=O)c1cc(Cn2cc(C(F)(F)F)nn2)nn1-c1ncccc1Cl
4. O=C(NCC1CC1)c1cc(Cl)cc(Cl)c1NC(=O)c1cc(Cn2cc(C(F)(F)F)nn2)nn1-c1ncccc1Cl

[2.97, 2.9, 3.15, 3.14]

chromatographic logP for CNC(=O)c1cc(Cl)cc(C)c1NC(=O)c1cc(Cn2nnc3c(Cl)c(Cl)c(Cl)cc32)nn1-c1ncccc1Cl ?
3.75

* * *

- System: caterpillars of the armyworm (Spodoptera frugiperda)
- RUN_DESCRIPTION: Spodoptera frugiperda test (SPODFR spray treatment)
- Type: in vivo
- EXPERIMENTAL_CONDITIONS: 168 h, 100 g/ha, after 7 days, read-out: activity in %
RECORDED_METRIC: pest or weed control at 100 g/ha (%)
Numbers only, in %.

{"SAMPLE_SMILES": "CNC(=O)c1cc(C#N)cc(C)c1NC(=O)c1cc(Cn2nnc3cc(Br)c(C(F)(F)F)cc32)nn1-c1ncccc1Cl", "SYSTEM_UNDER_TEST": "caterpillars of the armyworm (Spodoptera frugiperda)", "READING_UNIT": "%", "ASSAY_RESULT": 100}

// each listed compound needs a value for pest or weed control at 100 g/ha
1. CNC(=O)c1cc(Cl)cc(C)c1NC(=O)c1cc(Cn2nnc3cc(Cl)ccc32)nn1-c1ncccc1Cl
2. Cc1cc(C#N)cc(C(=O)NC2CC2)c1NC(=O)c1cc(Cn2ncc(C(F)(F)F)n2)nn1-c1ccccc1Cl
3. CCNC(=O)c1cc(Cl)cc(C)c1NC(=O)c1cc(Cn2ncc(C(F)(F)C(F)(F)F)n2)nn1-c1ncccc1Cl

1. 100
2. 100
3. 100

* * *

Please respond with reported chromatographic logP for every item in the list.
- RUN_DESCRIPTION: log P determination by HPLC on reversed-phase columns (EEC Directive 79/831 Annex V.A8)
- Format: physicochemical
- EXPERIMENTAL_CONDITIONS: pH 2.7
Give bare numbers.

Use these answered entries as a reference point.
{"COMPOUND": "Cc1cc(C#N)cc(C(=O)NC(C)C)c1NC(=O)c1cc(Cn2nncc2C(F)(F)F)nn1-c1ncccc1Cl", "ASSAY_RESULT": 2.63}
{"COMPOUND": "CNC(=O)c1cc(C#N)cc(C)c1NC(=O)c1cc(Cn2cc(-c3ccc(Cl)cc3)nn2)nn1-c1ncccc1Cl", "ASSAY_RESULT": 2.75}
{"COMPOUND": "Cc1cc(Cl)cc(C(=O)NC(C)(C)C)c1NC(=O)c1cc(Cn2ncc(C(F)(F)C(F)(F)F)n2)nn1-c1ncccc1Cl", "ASSAY_RESULT": 4.27}
{"COMPOUND": "Cc1cc(I)cc(C(=O)NC(C)C2CC2)c1NC(=O)c1cc(Cn2nc(C(F)(F)F)c(C(F)(F)F)n2)nn1-c1ncccc1Cl (stereo not shown)", "ASSAY_RESULT": 4.76}
{"COMPOUND": "Cc1cc(I)cc(C(=O)NC2CCC2)c1NC(=O)c1cc(Cn2ncc(C(F)(F)F)n2)nn1-c1ncccc1Cl", "ASSAY_RESULT": 3.89}

// each listed compound needs a value for chromatographic logP
1. Cc1cc(C#N)cc(C(=O)NC(C)(C)C)c1NC(=O)c1cc(Cn2cc(-c3ccc(Cl)cc3Cl)nn2)nn1-c1ncccc1Cl
2. Cc1cc(I)cc(C(=O)NC2CC2)c1NC(=O)c1cc(Cn2cc(C(F)(C(F)(F)F)C(F)(F)F)nn2)nn1-c1ncccc1Cl

1: 4.06; 2: 3.83

* * *

Please respond with reported chromatographic logP for every item in the list.
- RUN_DESCRIPTION: log P determination by HPLC on reversed-phase columns (EEC Directive 79/831 Annex V.A8)
- Assay type: physicochemical
- EXPERIMENTAL_CONDITIONS: pH 2.7
Numbers only.

{"MOLECULE": "CCNC(=O)c1cc(Cl)cc(C)c1NC(=O)c1cc(Cn2ncc(C(F)(F)F)n2)nn1-c1ncccc1Cl [Example 138]", "RECORDED_METRIC": "chromatographic logP", "ASSAY_RESULT": 3.26}
{"MOLECULE": "CNC(=O)c1cc(Cl)cc(C)c1NC(=O)c1cc(Cn2nnc3c(Br)cc(OC(F)(F)F)cc32)nn1-c1ncccc1Cl [Example 90]", "RECORDED_METRIC": "chromatographic logP", "ASSAY_RESULT": 3.74}
{"MOLECULE": "Cc1cc(Cl)cc(C(N)=O)c1NC(=O)c1cc(Cn2ncc(C(F)(F)C(F)(F)F)n2)nn1-c1ncccc1Cl [Example 359]", "RECORDED_METRIC": "chromatographic logP", "ASSAY_RESULT": 3.12}
{"MOLECULE": "CNC(=O)c1cc(Cl)cc(C)c1NC(=O)c1cc(Cn2ncc(-c3ccc(F)cc3)n2)nn1-c1ncccc1Cl [Example 24]", "RECORDED_METRIC": "chromatographic logP", "ASSAY_RESULT": 3.23}
{"MOLECULE": "Cc1cc(I)cc(C(N)=O)c1NC(=O)c1cc(Cn2cc(C(F)(F)F)nn2)nn1-c1ncccc1Cl [Example 213]", "RECORDED_METRIC": "chromatographic logP", "ASSAY_RESULT": 2.64}
{"MOLECULE": "Cc1cc(C#N)cc(C(=O)NC(C)(C)C)c1NC(=O)c1cc(Cn2nc3c(Cl)c(Cl)c(Cl)c(Cl)c3n2)nn1-c1ncccc1Cl [Example 105]", "RECORDED_METRIC": "chromatographic logP", "ASSAY_RESULT": 5.13}
{"MOLECULE": "CNC(=O)c1cc(C#N)cc(C)c1NC(=O)c1cc(Cn2nc(C(F)(F)F)c(C(F)(F)F)n2)nn1-c1ncccc1Cl [Example 414]", "RECORDED_METRIC": "chromatographic logP", "ASSAY_RESULT": 3.43}
{"MOLECULE": "CC(C)(C)NC(=O)c1cc(Cl)cc(Cl)c1NC(=O)c1cc(Cn2cc(C(F)(F)F)nn2)nn1-c1ncccc1Cl [Example 201]", "RECORDED_METRIC": "chromatographic logP", "ASSAY_RESULT": 3.42}

// each listed molecule needs a value for chromatographic logP
1. Cc1cc(C#N)cc(C(=O)NC2CC2)c1NC(=O)c1cc(Cn2cc(C(F)(F)F)nn2)nn1-c1ncccc1Cl [Example 179]
2. CNC(=O)c1cc(C#N)cc(C)c1NC(=O)c1cc(Cn2ncc(-c3cccc(Cl)c3)n2)nn1-c1ncccc1Cl [Example 44]
3. O=C(NCC1CC1)c1cc(Cl)cc(Cl)c1NC(=O)c1cc(Cn2ncc(C(F)(F)F)n2)nn1-c1ncccc1Cl [Example 152]
4. CNC(=O)c1cc(Cl)cc(C)c1NC(=O)c1cc(Cn2nc(C(F)(F)F)c(C(F)(F)F)n2)nn1-c1ncccc1Cl [Example 411]
5. Cc1cc(Cl)cc(C(=O)NC(C)(C)C)c1NC(=O)c1cc(Cn2nccn2)nn1-c1ncccc1Cl [Example 121]
6. Cc1cc(Cl)cc(C(N)=O)c1NC(=O)c1cc(Cn2cc(C(F)(C(F)(F)F)C(F)(F)F)nn2)nn1-c1ncccc1Cl [Example 231]

1: 2.5; 2: 3.23; 3: 3.48; 4: 3.78; 5: 2.87; 6: 3.16

* * *

- RUN_DESCRIPTION: log P determination by HPLC on reversed-phase columns (EEC Directive 79/831 Annex V.A8)
- Format: physicochemical
- EXPERIMENTAL_CONDITIONS: pH 2.7
// returns false (0) unless chromatographic logP is strictly below 4, in which case true (1)

{"COMPOUND": "CCNC(=O)c1cc(Cl)cc(Cl)c1NC(=O)c1cc(Cn2ncc(C(F)(F)F)n2)nn1-c1ncccc1Cl [Example 149]", "CLASS_ASSIGNMENT": "true (1)"}

Lab note: confirm whether the reported chromatographic logP for this compound is below 4, equality not counting. compound: Cc1cc(C#N)cc(C(=O)NCC2CC2)c1NC(=O)c1cc(Cn2cc(C(F)(F)F)nn2)nn1-c1ncccc1Cl [Example 185]
true (1)

Lab note: confirm whether the reported chromatographic logP for this compound is below 4, equality not counting. compound: CNC(=O)c1cc(C#N)cc(C)c1NC(=O)c1cc(Cn2nnc3cc(Br)c(C(F)(F)F)cc32)nn1-c1ncccc1Cl [Example 97]
true (1)

Lab note: confirm whether the reported chromatographic logP for this compound is below 4, equality not counting. compound: CNC(=O)c1cc(C#N)cc(C)c1NC(=O)c1cc(Cn2ncc(-c3ccc(Cl)cc3Cl)n2)nn1-c1ncccc1Cl [Example 42]
true (1)

Lab note: confirm whether the reported chromatographic logP for this compound is below 4, equality not counting. compound: Cc1cc(I)cc(C(=O)NCC2CC2)c1NC(=O)c1cc(Cn2nc(C(F)(F)F)c(C(F)(F)F)n2)nn1-c1ncccc1Cl [Example 401]
false (0)
